Biological target: ATP5B protein (UniProt P06576)
Sequence (P06576 48-529 limits assumed): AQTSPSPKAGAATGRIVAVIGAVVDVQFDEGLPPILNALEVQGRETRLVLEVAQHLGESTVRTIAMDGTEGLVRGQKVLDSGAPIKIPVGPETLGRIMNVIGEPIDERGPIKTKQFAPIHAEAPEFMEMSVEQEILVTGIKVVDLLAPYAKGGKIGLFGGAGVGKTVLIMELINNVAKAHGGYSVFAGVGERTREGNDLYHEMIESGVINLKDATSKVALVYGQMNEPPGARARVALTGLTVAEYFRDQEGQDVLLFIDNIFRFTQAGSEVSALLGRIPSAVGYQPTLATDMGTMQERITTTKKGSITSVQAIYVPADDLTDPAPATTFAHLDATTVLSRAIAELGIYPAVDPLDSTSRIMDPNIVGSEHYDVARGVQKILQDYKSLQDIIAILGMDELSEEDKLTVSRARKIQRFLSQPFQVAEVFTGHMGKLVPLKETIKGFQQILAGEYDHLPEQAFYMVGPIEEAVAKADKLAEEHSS
Assay: SPR, ATP5B amine-coupled to CM5 chip, peptide in flow at 50 µl/min; binding relative to SEQ ID NO: 12
parameter.measured: Binding (%)

# count of solved cases: 4
VDRGAGSIREAGGAFGKREQAEEARYFR [Shortened substance (8-35) amino acid Ala substituted (31)]	158
VDRGAGSIREAGGAFGKREQAEEERAFR [Shortened substance (8-35) amino acid Ala substituted (33)]	146
VDRGAGSIREAGGAFGKRAQAEEERYFR [Shortened substance (8-35) amino acid Ala substituted (26)]	94.1
VDRGAGSIREAGGAFGKREQAEEERYFR [Shortened substance (8-35)]	100

A: VDRGAGSIREAGAAFGKREQAEEERYFR [Shortened substance (8-35) amino acid Ala substituted (20)]
B: VDRGAGSIREAGGAFAKREQAEEERYFR [Shortened substance (8-35) amino acid Ala substituted (23)]
C: VDRGAGSIRAAGGAFGKREQAEEERYFR [Shortened substance (8-35) amino acid Ala substituted (17)]
D: VDRGAGSIREAGGAFGKREQAEEEAYFR [Shortened substance (8-35) amino acid Ala substituted (32)]
Please give the order of these binders when sorted by Binding (%), largest value leading. Answer by naming the labels in the order asked.
D, C, B, A
